target: hGhrR (COS7 cells stably transfected with hGhrR) (Homo sapiens); construct: expressed in transfected cells; assay: Inositol phosphate accumulation assay, antagonistic potency with 10^-8 M ghrelin; assay type: cell-based; details: COS-7; read-out: Emax (antagonistic efficacy)
Sequence (Q92847 whole entry): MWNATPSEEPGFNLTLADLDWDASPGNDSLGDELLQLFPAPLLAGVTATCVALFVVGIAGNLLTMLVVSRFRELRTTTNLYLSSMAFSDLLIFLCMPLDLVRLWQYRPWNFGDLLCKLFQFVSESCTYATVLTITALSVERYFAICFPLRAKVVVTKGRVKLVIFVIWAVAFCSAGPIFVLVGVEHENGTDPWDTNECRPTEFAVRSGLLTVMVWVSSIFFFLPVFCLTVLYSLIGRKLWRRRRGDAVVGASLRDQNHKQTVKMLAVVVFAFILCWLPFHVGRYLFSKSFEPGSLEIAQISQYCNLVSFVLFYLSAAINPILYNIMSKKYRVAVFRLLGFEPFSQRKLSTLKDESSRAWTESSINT
Parameter: Emax. Scope: all listed entries.
Experimental Endpoint: Emax

1) Cc1nc2ccc(Oc3ccc(Br)cc3F)nc2c(=O)n1C[C@H]1CCCN(C(C)C)C1 [(S)-9]	38%
2) Cc1nc2ccc(Oc3ccc(Br)cc3F)nc2c(=O)n1C[C@@H]1CCCN(C(C)C)C1 [(R)-9]	45%
3) Cc1nc2ccc(Oc3ccc(Br)cc3F)nc2c(=O)n1C[C@H]1CCCN(CCF)C1 [(S)-10]	22%

====

molecular target: hGhrR (COS7 cells stably expressing hGhrR-eYFP) (Homo sapiens, UniProt Q92847); assay: cell-based; settings: pEC50, mean ± SEM; 2 h stimulation in absence of ghrelin
Sequence (Q92847 whole entry): as above
pEC50: −log10 of the molar value.
Listing of entries alongside the reported pEC50.
Experimental Endpoint: pEC50

1. Cc1nc2ccc(Oc3ccc(Br)cc3)nc2c(=O)n1C[C@H]1CCCN(C(C)C)C1 [(S)-14]	8.67
2. Cc1nc2ccc(Oc3ccc(Br)cc3F)nc2c(=O)n1C[C@H]1CCCN(CCF)C1 [(S)-10]	8.80
3. Cc1nc2ccc(Oc3ccc(Br)cc3F)nc2c(=O)n1C[C@H]1CCCN(C(C)C)C1 [(S)-9]	9.17
4. Cc1nc2ccc(Oc3ccc(Br)cc3F)nc2c(=O)n1C[C@H]1CCCN(CCCF)C1 [(S)-11]	8.54
5. Cc1nc2ccc(Oc3ccc(Br)cc3F)nc2c(=O)n1C[C@H]1CCCN(C(C)CF)C1 (stereo partly drawn) [(S)-13]	8.87
6. CC(C)N1CCC[C@H](Cn2cnc3ccc(Oc4ccc(Br)cc4F)nc3c2=O)C1 [(S)-16]	8.99
7. Cc1nc2ccc(Oc3ccc(Br)cc3F)nc2c(=O)n1C[C@@H]1CCCN(C(C)C)C1 [(R)-9]	9.26

====

Emax overview
target: hGhrR (COS7 cells stably transfected with hGhrR) (Homo sapiens); construct: expressed in transfected cells; experiment: Inositol phosphate accumulation assay, antagonistic potency with 10^-8 M ghrelin; assay type: cell-based; settings: COS-7; read-out: Emax (antagonistic efficacy)
Experimental Endpoint: Emax (%)

1. Cc1nc2ccc(Oc3ccc(Br)cc3)nc2c(=O)n1C[C@H]1CCCN(C(C)C)C1 [(S)-14]	57
2. Cc1nc2ccc(Oc3ccc(Br)cc3F)nc2c(=O)n1C[C@H]1CCCN(CCCF)C1 [(S)-11]	56
3. Cc1nc2ccc(Oc3ccc(Br)cc3F)nc2c(=O)n1C[C@H]1CCCN(C(C)CF)C1 (stereo partly drawn) [(S)-13]	31
4. CC(C)N1CCC[C@H](Cn2cnc3ccc(Oc4ccc(Br)cc4F)nc3c2=O)C1 [(S)-16]	65

Provenance of the data: paper PMC5412352
